PROTOCOL_SUMMARY: chemical genetic growth profiling, strain panel (AID 1159580);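 also: tested at 20 µM; growth read once vehicle control cultures reached saturation at 30 °C; 1 = growth at the plate median or of vehicle wells; lower values mean less growth of the strain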
RUN_PARAMETERS: S. cerevisiae deletion strains, growth OD, locus YLR027C, strain aat2, stronger effect = lower value
The whole screen tested about 5,500 compounds, of which about 2,000 (36%) were called active. Not shown: some 18% with an inconclusive outcome. Some of the results follow.
VALUE_KIND: normalized growth
Quick one: just the number, no unit, thanks!

Solved cases below.
MOLECULE	normalized growth
O=C(O)c1nc2cc(Cl)c(Cl)cc2[nH]c1=O	1.01
CC1(C)O[C@@H]2CC3C4CCC5=CC(=O)C=C[C@]5(C)[C@@]4(F)[C@@H](O)C[C@]3(C)[C@]2(C(=O)CO)O1 (some centres undefined)	1
CC(=O)O[C@@H]1CC2C(C)(C)[C@H](O)C[C@H](O)[C@]2(C)C2CC[C@@]3(C)[C@H](c4ccoc4)OC(=O)[C@H]4O[C@]43[C@@]21C (some centres undefined)	0.993

Consider now this further molecule.
# lookup: normalized growth of `COc1ccc(C(=O)/C=C/c2ccccc2)cc1` 0.846
